Source of measurements: patent US7816361B2

- EXPERIMENTAL TARGET: Biotinylated human CD80 (hCD80-BT) (Homo sapiens, UniProt P33681)
- Construct: biotin (biotinylation)
- Sequence (P33681 35-242 limits assumed): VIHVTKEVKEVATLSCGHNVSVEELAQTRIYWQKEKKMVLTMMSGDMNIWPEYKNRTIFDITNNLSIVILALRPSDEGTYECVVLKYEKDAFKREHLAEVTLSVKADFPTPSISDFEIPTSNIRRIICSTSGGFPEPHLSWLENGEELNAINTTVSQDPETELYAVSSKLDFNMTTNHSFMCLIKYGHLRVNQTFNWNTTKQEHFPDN
- ASSAY COMMENT: Biacore biomolecular interaction analysis (BIAcore S51)
- Type: binding
- EXPERIMENTAL SETUP: BIAcore S51, immobilised hCD80-BT
EXPERIMENTAL READOUT: Kd

CN1C(C)(C)CC(NC(=O)c2ccc(-n3[nH]c(-c4ccccc4)cc3=O)cc2)CC1(C)C: < 100 nM

# evaluate next
Inquiry: Dear colleague, I am looking for the recorded Kd of the following compound: "CN(C)CCCNC(=O)c1ccc(-n2[nH]c(-c3ccco3)cc2=O)cc1"
Reply text: < 100 nM

---

Provide the recorded EC50 for the entries that follow.
- EXPERIMENTAL TARGET: CD80-CD28 interaction (Homo sapiens, UniProt P33681)
- Sequence (P33681 35-242 limits assumed): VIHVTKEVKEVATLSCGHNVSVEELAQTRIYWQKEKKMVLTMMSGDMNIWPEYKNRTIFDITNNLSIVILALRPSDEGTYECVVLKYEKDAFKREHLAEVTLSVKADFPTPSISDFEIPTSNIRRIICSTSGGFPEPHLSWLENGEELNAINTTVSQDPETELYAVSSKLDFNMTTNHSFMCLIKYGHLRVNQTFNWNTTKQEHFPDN
- ASSAY COMMENT: Homogenous Time Resolved Fluorescence (HTRF) assay, cell free
- EXPERIMENTAL SETUP: inhibition of CD80-CD28 interaction; concentration series 100 μM-1.7 nM; 4 hours at room temperature; read-out: Activity Rating (EC50) in the HTRF assay

O=C(NCCCCN1CCCC1)c1ccc(-n2[nH]c(-c3ccoc3)cc2=O)cc1: 1 to 10 µM
CN1C(C)(C)CC(NC(=O)c2ccc(-n3[nH]c(-c4ccccc4)cc3=O)cc2)CC1(C)C: 1 to 10 µM
O=C(NCCCNC1CCCCC1)c1ccc(-n2[nH]c(-c3ccco3)cc2=O)cc1: < 1 µM
O=C(NCCCNC1CCCCC1)c1ccc(-n2[nH]c(-c3ccoc3)cc2=O)cc1: < 1 µM
O=C(NCCCCN1CCCC1)c1ccc(-n2[nH]c(-c3cccnc3)cc2=O)cc1: 1 to 10 µM
O=C(NCCCCN1CCCC1)c1ccc(-n2[nH]c(-c3cc4ccccc4o3)cc2=O)cc1: 1 to 10 µM
Cc1c(-c2ccco2)[nH]n(-c2ccc(C(=O)NC3CC(C)(C)N(C)C(C)(C)C3)cc2)c1=O: > 10 µM
CN(C)CCCNC(=O)c1ccc(-n2[nH]c(-c3cccnc3)cc2=O)cc1: 1 to 10 µM

// for each compound below, give its EC50
1. O=C(NCCCCN1CCCC1)c1ccc(-n2[nH]c(-c3ccccn3)cc2=O)cc1
2. O=C(NCCCNC1CCCCC1)c1ccc(-n2[nH]c(-c3ccccn3)cc2=O)cc1
3. CN1C(C)(C)CC(NC(=O)c2ccc(-n3[nH]c(-c4ccno4)cc3=O)cc2)CC1(C)C
4. CN1C(C)(C)CC(NC(=O)c2ccc(-n3[nH]c(-c4ccccn4)cc3=O)cc2)CC1(C)C
5. CN(C)CCCNC(=O)c1ccc(-n2[nH]c(-c3cnccn3)cc2=O)cc1
6. O=C(NCCCNC1CCCCC1)c1ccc(-n2[nH]c(-c3ccccc3)cc2=O)cc1

Reply text:
< 1 µM
1 to 10 µM
> 10 µM
< 1 µM
< 1 µM
1 to 10 µM

// for each compound below, give its EC50
1. CN1C(C)(C)CC(NC(=O)c2ccc(-n3[nH]c(-c4cccnc4)cc3=O)cc2)CC1(C)C
2. O=C(NCCCCN1CCCC1)c1ccc(-n2[nH]c(-c3ccccc3)cc2=O)cc1
3. O=C(NCCCNC1CCCCC1)c1ccc(-n2[nH]c(-c3cccnc3)cc2=O)cc1
4. CN(C)CCCNC(=O)c1ccc(-n2[nH]c(-c3ccccn3)cc2=O)cc1
5. CN1C(C)(C)CC(NC(=O)c2ccc(-n3[nH]c(-c4ccoc4)cc3=O)cc2)CC1(C)C
6. O=C(NCCCNC1CCCCC1)c1ccc(-n2[nH]c(-c3cc4ccccc4o3)cc2=O)cc1

Reply text:
1 to 10 µM
< 1 µM
1 to 10 µM
< 1 µM
1 to 10 µM
1 to 10 µM

// for each compound below, give its EC50
1. CN(C)CCCNC(=O)c1ccc(-n2[nH]c(-c3cc4ccccc4o3)cc2=O)cc1
2. CN1C(C)(C)CC(NC(=O)c2ccc(-n3[nH]c(-c4cccc(F)c4)cc3=O)cc2)CC1(C)C
3. CN1C(C)(C)CC(NC(=O)c2ccc(-n3[nH]c(-c4ccco4)cc3=O)cc2)CC1(C)C
4. O=C(NCCCCN1CCCC1)c1ccc(-n2[nH]c(-c3cnccn3)cc2=O)cc1

Reply text:
1: 1 to 10 µM; 2: < 1 µM; 3: < 1 µM; 4: 1 to 10 µM

---

- EXPERIMENTAL TARGET: CD80-CD28 interaction (Homo sapiens, UniProt P33681)
- ASSAY COMMENT: Homogenous Time Resolved Fluorescence (HTRF) assay, cell free
- EXPERIMENTAL SETUP: inhibition of CD80-CD28 interaction; concentration series 100 μM-1.7 nM; 4 hours at room temperature; read-out: Activity Rating (EC50) in the HTRF assay
pEC50: −log10 of the molar value.
EXPERIMENTAL READOUT: pEC50

Examples with their reported pEC50 follow.
O=C(NCCN1CCN(Cc2ccccc2)CC1)c1ccc(-n2[nH]c(-c3ccccc3)cc2=O)cc1: < 5.00
CN(C)CCCNC(=O)c1ccc(-n2[nH]c(-c3ccco3)cc2=O)cc1: > 6.00
CN1C(C)(C)CC(NC(=O)c2ccc(-n3[nH]c(-c4cc5ccccc5o4)cc3=O)cc2)CC1(C)C: 5.00 to 6.00
O=C(NCCCNC1CCCCC1)c1ccc(-n2[nH]c(-c3cccc(F)c3)cc2=O)cc1: 5.00 to 6.00
O=C(NCCCCN1CCCC1)c1ccc(-n2[nH]c(-c3ccco3)cc2=O)cc1: 5.00 to 6.00

// for each molecule below, give its pEC50
1. CN(C)CCCNC(=O)c1ccc(-n2[nH]c(-c3ccoc3)cc2=O)cc1
2. CN(C)CCCNC(=O)c1ccc(-n2[nH]c(-c3ccccc3)cc2=O)cc1
3. CN(C)CCCNC(=O)c1ccc(-n2[nH]c(-c3cccc(F)c3)cc2=O)cc1

Reply text:
1: 5.00 to 6.00; 2: 5.00 to 6.00; 3: > 6.00
